assayed system: PIK3CA (human) (UniProt P42336)
Sequence (P42336 whole entry, looked up): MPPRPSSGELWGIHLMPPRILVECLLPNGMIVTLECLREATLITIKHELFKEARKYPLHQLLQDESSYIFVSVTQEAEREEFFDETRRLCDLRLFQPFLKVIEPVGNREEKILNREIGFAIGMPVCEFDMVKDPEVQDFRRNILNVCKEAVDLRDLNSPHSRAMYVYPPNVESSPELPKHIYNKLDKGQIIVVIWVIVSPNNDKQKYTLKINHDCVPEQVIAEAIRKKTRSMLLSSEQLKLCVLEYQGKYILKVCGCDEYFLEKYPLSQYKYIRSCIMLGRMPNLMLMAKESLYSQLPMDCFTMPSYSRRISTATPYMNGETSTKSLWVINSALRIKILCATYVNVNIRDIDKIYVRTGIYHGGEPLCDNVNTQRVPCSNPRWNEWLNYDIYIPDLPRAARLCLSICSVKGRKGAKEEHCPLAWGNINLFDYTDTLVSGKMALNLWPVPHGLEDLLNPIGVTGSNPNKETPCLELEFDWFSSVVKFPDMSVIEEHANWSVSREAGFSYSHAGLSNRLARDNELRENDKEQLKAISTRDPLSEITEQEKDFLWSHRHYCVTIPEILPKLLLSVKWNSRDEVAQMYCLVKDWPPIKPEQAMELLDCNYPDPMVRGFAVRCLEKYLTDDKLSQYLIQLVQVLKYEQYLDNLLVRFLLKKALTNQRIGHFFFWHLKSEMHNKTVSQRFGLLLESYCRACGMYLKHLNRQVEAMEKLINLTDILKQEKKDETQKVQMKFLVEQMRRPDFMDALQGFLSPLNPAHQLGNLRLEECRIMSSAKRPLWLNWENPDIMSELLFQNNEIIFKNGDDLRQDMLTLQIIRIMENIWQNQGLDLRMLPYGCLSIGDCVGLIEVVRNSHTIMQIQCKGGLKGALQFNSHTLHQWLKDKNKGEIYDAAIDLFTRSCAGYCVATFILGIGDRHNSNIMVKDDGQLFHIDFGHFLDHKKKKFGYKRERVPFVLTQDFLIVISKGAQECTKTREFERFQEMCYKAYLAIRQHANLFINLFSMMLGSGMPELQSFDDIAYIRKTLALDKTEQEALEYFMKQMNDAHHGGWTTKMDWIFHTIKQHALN
pIC50: −log10 of the molar value.
measurement name: pIC50

Worked examples, 2 compounds total:
compound string: CCCc1nc2cc(C=CC(=O)NO)ccc2n1CCN(C)Cc1cc2nc(-c3ccc(NC)nc3)nc(N3CCOCC3)c2s1
pIC50: 6.00 to 7.00
//
compound string: CC(=O)N1CCN(c2nc(-c3cccc4[nH]ncc34)nc3cc(CN(C)c4ncc(C(=O)NO)cn4)sc23)CC1
pIC50: < 5.00

Short answer please: pIC50, PIK3CA (human) (UniProt P42336), entry CN(Cc1cc2nc(-c3ccc(N)cc3Cl)nc(N3CCOCC3)c2s1)c1ncc(C(=O)NO)cn1 > 7.00
